test system: SNB-75 CNS; assay: NCI-60 one-dose screen, 48 h (100 = growth as untreated, 0 = no growth, -100 = all killed); conditions: 10 µM unless noted
About 83,000 compounds went through this panel and 20% of them were active in at least one assay; those are over-represented in the sample as a whole.
quantity measured: growth (%)
# value in %; strip the unit string

The reported value for `COc1ccc(CC(C)=C(c2ccc(OCCN(C)C)cc2)c2ccc(OCCN(C)C)cc2)cc1` in terms of growth is 81.6

The reported value for `Cn1c(COC(=O)NCCn2ccnc2)nc2c(N3CCOCC3)nc(-c3ccccc3)nc21` in terms of growth is -89.9

The reported value for CCN1C(=O)/C(=c2\sc3n(c2=O)NC2C(N=3)N(CC)C(=O)N2CC)c2ccccc21 (configuration not stated) in terms of growth is 7.11

The reported value for `c1ccc(-c2nn(-c3ccccc3)[n+](-c3cccc4ccccc34)n2)cc1` in terms of growth is 48.4

The reported value for `COc1cc(Nc2cc(O)c3c(=O)cc(-c4ccccc4)oc3c2)cc(OC)c1` in terms of growth is -9.05

The reported value for `O=C1NC(=S)NC(=O)C1=Cc1cccc(C=C2C(=O)NC(=S)NC2=O)c1` in terms of growth is 98.9

The reported value for `COc1ccc(C(=O)c2cc3c(N)c(C(=O)Nc4cccc5ccccc45)sc3nc2C)cc1` in terms of growth is -11.3
